// CC50 lookup, one value per entry
assay_protocol: Cytotoxicity in mock-infected human MT4 cells assessed as reduction in cell viability by MTT assay
Format: cell-based

Observe how each entry below is paired with its result.
Cc1cc(C)c(Oc2cnc([N+](=O)[O-])c(Nc3ccc(C#N)cc3)c2)c(C)c1 ... > 334 µM
Cc1cc(C#N)cc(C)c1Oc1cnc([N+](=O)[O-])c(Nc2ccc(C#N)cc2)c1 ... > 324 µM

Given the compound N#Cc1ccc(Nc2cc(Oc3c(Br)cc(Br)cc3Br)cnc2[N+](=O)[O-])cc1 , what is its reported CC50?
> 220 µM

###

// selectivity ratio lookup, one value per entry
assay_protocol: Selectivity index, ratio of CC50 for mock-infected human MT4 cells to EC50 for antiviral activity against HIV1 3B infected in human MT4 cells
Format: toxicity, cell-based
condition_description: mock-infected (CC50) and HIV1 3B infected (EC50)

Observe how each entry below is paired with its result.
Cc1cc(Br)c(Oc2cnc(N)c(Nc3ccc(C#N)cc3)c2)c(Br)c1 ... > 3800
N#Cc1ccc(Nc2cc(Oc3c(Br)cc(Br)cc3Br)cnc2[N+](=O)[O-])cc1 ... > 277
Cc1cccc(C)c1Oc1cnc([N+](=O)[O-])c(Nc2ccc(C#N)cc2)c1 ... > 171
Cc1cccc(C)c1Oc1cnc(N)c(Nc2ccc(C#N)cc2)c1 ... > 628
Cc1cc(C)c(Oc2cnc([N+](=O)[O-])c(Nc3ccc(C#N)cc3)c2)c(C)c1 ... > 1160
Cc1cc(Cl)cc(C)c1Oc1cnc([N+](=O)[O-])c(Nc2ccc(C#N)cc2)c1 ... > 171
COc1cccc(OC)c1Oc1cnc(N)c(Nc2ccc(C#N)cc2)c1 ... > 10
N#Cc1ccc(Nc2cc(Oc3c(Cl)cc(Cl)cc3Cl)cnc2[N+](=O)[O-])cc1 ... > 924

Continue with the next compound.
Given the compound Cc1cc(C#N)cc(C)c1Oc1cnc([N+](=O)[O-])c(Nc2ccc(C#N)cc2)c1 , what is its reported selectivity ratio?
> 79
